- Tested on: S. aureus MW2
- Method Description: Minimal inhibitory concentration, S. aureus MW2
- Assay type: cell-based
- Condition Info: Staphylococcus aureus, MRSA, 16 h, 16 hour minimal inhibitory concentration at 37° C.; read-out: MIC (μM) S. aureus MW2 (MRSA)
The entries below come with measured MIC values attached.
Report as a plain number; the unit µM is understood.

| Smiles Input | Assayed System | Measured Result |
| --- | --- | --- |
| CO[C@@H]1[C@@H](OC(N)=O)[C@@H](O)[C@H](Oc2ccc3c(O)c(NC(=O)c4c[nH]c5ccccc45)c(=O)oc3c2C)OC1(C)C | S. aureus MW2 | 22 |

q: Return reported MIC. Input molecule: `CO[C@@H]1[C@@H](OC(N)=O)[C@@H](O)[C@H](Oc2ccc3c(O)c(NC(=O)Nc4cccc(-c5ccccc5)c4)c(=O)oc3c2C)OC1(C)C`
a: 81

* * *

- System: S. aureus MW2
- Method Description: Minimal inhibitory concentration, S. aureus MW2
- Assay type: cell-based
- Condition Info: Staphylococcus aureus, MRSA, 16 h, 16 hour minimal inhibitory concentration at 37° C.; read-out: MIC (μM) S. aureus MW2 (MRSA)
The entries below come with measured MIC values attached.
The answer should read as a number with its unit following.

Below are worked cases with known answers.
| Smiles Input | Reported Metric | Measured Result |
| --- | --- | --- |
| CO[C@@H]1[C@@H](OC(N)=O)[C@@H](O)[C@H](Oc2ccc3c(O)c(NC(=O)c4cccc(-c5ccc(Cl)c(Cl)c5)c4)c(=O)oc3c2C)OC1(C)C | MIC | 0.23 µM |
| CO[C@@H]1[C@@H](OC(N)=O)[C@@H](O)[C@H](Oc2ccc3c(O)c(NC(=O)c4cccc(Oc5ccccc5Cl)c4)c(=O)oc3c2C)OC1(C)C | MIC | 5 µM |
| COc1ccc(C(=O)Nc2c(O)c3ccc(O[C@@H]4OC(C)(C)[C@H](OC)[C@@H](OC(N)=O)[C@H]4O)c(C)c3oc2=O)cc1 | MIC | 45 µM |
| CO[C@@H]1[C@@H](OC(N)=O)[C@@H](O)[C@H](Oc2ccc3c(O)c(NC(=O)C(c4ccccc4)c4ccccc4)c(=O)oc3c2C)OC1(C)C | MIC | 80 µM |
| COc1ccc(-c2cccc(C(=O)Nc3c(O)c4ccc(O[C@@H]5OC(C)(C)[C@H](OC)[C@@H](OC(N)=O)[C@H]5O)c(C)c4oc3=O)c2)cc1 | MIC | 3 µM |

// below: MIC requested for another compound
q: Return reported MIC. Input compound: `CO[C@@H]1[C@@H](OC(N)=O)[C@@H](O)[C@H](Oc2ccc3c(O)c(NC(=O)c4cccc(Oc5ccc(C(F)(F)F)cc5)c4)c(=O)oc3c2C)OC1(C)C`
a: 9 µM

* * *

- Test system: E. coli MC4100
- Method Description: Minimal inhibitory concentration, E. coli MC4100
- Assay type: cell-based
- Condition Info: 16 hour minimal inhibitory concentration at 37° C.; read-out: MIC (μM) E. coli MC4100 ara+
Reported Metric: MIC (µM)
Report as a plain number; the unit µM is understood.

| Compound | MIC (µM) |
| --- | --- |
| CO[C@@H]1[C@@H](OC(N)=O)[C@@H](O)[C@H](Oc2ccc3c(O)c(NC(=O)c4cc(N)cc(-c5ccccc5)c4)c(=O)oc3c2C)OC1(C)C [Compound 89] | 59 |
| CO[C@@H]1[C@@H](OC(N)=O)[C@@H](O)[C@H](Oc2ccc3c(O)c(NC(=O)c4cc(-c5ccc(F)cc5)c(O)cc4O)c(=O)oc3c2C)OC1(C)C [Compound 84] | 8 |

// below: MIC requested for another compound
q: Return reported MIC. Input compound: CO[C@@H]1[C@@H](OC(N)=O)[C@@H](O)[C@H](Oc2ccc3c(O)c(NC(=O)c4ccc(O)c(-c5cccc6ccccc56)c4)c(=O)oc3c2C)OC1(C)C [Compound 93]
a: 75

* * *

The entries below come with measured MIC values attached.
- Tested on: S. aureus RN4220
- Method Description: Minimal inhibitory concentration, S. aureus RN4220
- Assay type: cell-based
- Condition Info: 16 hour minimal inhibitory concentration at 37° C.; read-out: MIC (μM) S. aureus RN4220

q: Return reported MIC. Input compound: CO[C@@H]1[C@@H](OC(N)=O)[C@@H](O)[C@H](Oc2ccc3c(O)c(NC(=O)c4cc(-c5ccccc5)ccc4O)c(=O)oc3c2C)OC1(C)C [Compound 87]
a: 20 µM

q: Return reported MIC. Input compound: CO[C@@H]1[C@@H](OC(N)=O)[C@@H](O)[C@H](Oc2ccc3c(O)c(NC(=O)C45CC6CC(CC(F)(C6)C4)C5)c(=O)oc3c2C)OC1(C)C [Compound 100]
a: 83 µM

* * *

- Tested on: S. aureus RN4220
- Method Description: Minimal inhibitory concentration, S. aureus RN4220
- Format: cell-based
- Condition Info: 16 hour minimal inhibitory concentration at 37° C.; read-out: MIC (μM) S. aureus RN4220
# note: boundary value 2 µM maps to class 0; MIC below it maps to class 1

q: Quick check: does `CO[C@@H]1[C@@H](OC(N)=O)[C@@H](O)[C@H](Oc2ccc3c(O)c(NC(=O)c4ccc5ccn(C)c5c4)c(=O)oc3c2C)OC1(C)C` have MIC under 2 µM?
a: class 0

q: Quick check: does `CCCNC(=O)O[C@H]1[C@H](Oc2ccc3c(O)c(NC(=O)c4ccc(O)c(CC=C(C)C)c4)c(=O)oc3c2C)OC(C)(C)[C@H](OC)[C@H]1O` have MIC under 2 µM?
a: class 1

q: Quick check: does `CO[C@@H]1[C@@H](OC(N)=O)[C@@H](O)[C@H](Oc2ccc3c(O)c(NC(=O)c4cccc(-c5ccccc5OC(F)(F)F)c4)c(=O)oc3c2C)OC1(C)C` have MIC under 2 µM?
a: class 0

q: Quick check: does `CO[C@@H]1[C@@H](OC(N)=O)[C@@H](O)[C@H](Oc2ccc3c(O)c(NC(=O)c4ccc(O)c(C/C=C/C(=O)O)c4)c(=O)oc3c2C)OC1(C)C` have MIC under 2 µM?
a: class 0

q: Quick check: does `CO[C@@H]1[C@@H](OC(N)=O)[C@@H](O)[C@H](Oc2ccc3c(O)c(NC(=O)c4cccc(-c5ccccc5C(C)C)c4)c(=O)oc3c2C)OC1(C)C` have MIC under 2 µM?
a: class 0

q: Quick check: does `CO[C@@H]1[C@@H](OC(N)=O)[C@@H](O)[C@H](Oc2ccc3c(O)c(NC(=O)c4cc(O)c(O)c(-c5ccc6ccccc6c5)c4)c(=O)oc3c2C)OC1(C)C` have MIC under 2 µM?
a: class 0

q: Quick check: does `CO[C@@H]1[C@@H](O)[C@@H](OC(=O)NC(C)C)[C@H](Oc2ccc3c(O)c(NC(=O)c4ccc(O)c(CC=C(C)C)c4)c(=O)oc3c2C)OC1(C)C` have MIC under 2 µM?
a: class 0

q: Quick check: does `CO[C@@H]1[C@@H](OC(N)=O)[C@@H](O)[C@H](Oc2ccc3c(O)c(NC(=O)c4ccc(O)c(-c5ccc6ccccc6c5)c4)c(=O)oc3c2C)OC1(C)C` have MIC under 2 µM?
a: class 1

q: Quick check: does `CO[C@@H]1[C@@H](OC(N)=O)[C@@H](O)[C@H](Oc2ccc3c(O)c(NC(=O)c4cccc(-c5ccc(C)cc5)c4)c(=O)oc3c2C)OC1(C)C` have MIC under 2 µM?
a: class 0

q: Quick check: does `CO[C@@H]1[C@@H](OC(N)=O)[C@@H](O)[C@H](Oc2ccc3c(O)c(NC(=O)c4cccc(-c5ccc(C(F)(F)F)cc5)c4)c(=O)oc3c2C)OC1(C)C` have MIC under 2 µM?
a: class 1

* * *

- Test system: WT E. coli
- Method Description: Minimal inhibitory concentration in wild-type E. coli
- Assay type: cell-based, Escherichia coli
- Condition Info: wild-type E. coli, 37° C., 16 hours; read-out: MIC (μM) in WT E. coli
Reported Metric: MIC (µM)
Report as a plain number; the unit µM is understood.

q: Return reported MIC. Input compound: `CO[C@@H]1[C@@H](OC(N)=O)[C@@H](O)[C@H](Oc2ccc3c(O)c(NC(=O)c4cc(-c5ccc(F)cc5)c(O)cc4O)c(=O)oc3c2C)OC1(C)C`
a: 8

q: Return reported MIC. Input compound: `CO[C@@H]1[C@@H](OC(N)=O)[C@@H](O)[C@H](Oc2ccc3c(O)c(NC(=O)c4cccc(-c5ccccc5OC(F)(F)F)c4)c(=O)oc3c2C)OC1(C)C`
a: 40

q: Return reported MIC. Input compound: `CO[C@@H]1[C@@H](OC(N)=O)[C@@H](O)[C@H](Oc2ccc3c(O)c(NC(=O)c4cc(N)cc(-c5ccccc5)c4)c(=O)oc3c2C)OC1(C)C`
a: 59

* * *

- System: S. aureus MW2
- Method Description: Minimal inhibitory concentration, S. aureus MW2
- Assay type: cell-based
- Condition Info: 16 hour minimal inhibitory concentration at 37° C.; read-out: MIC (μM) S. aureus MW2 (MRSA)
# note: boundary value 20 µM maps to false (0); MIC below it maps to true (1)

The examples below pair each entry with its known result.
| Smiles Input | Assayed System | Classification |
| --- | --- | --- |
| CO[C@@H]1[C@@H](OC(N)=O)[C@@H](O)[C@H](Oc2ccc3c(O)c(NC(=O)c4ccc(O)c(C/C=C/C(=O)O)c4)c(=O)oc3c2C)OC1(C)C | S. aureus MW2 | false (0) |
| CO[C@@H]1[C@@H](OC(N)=O)[C@@H](O)[C@H](Oc2ccc3c(O)c(NC(=O)c4cccc(Cc5ccccc5)c4)c(=O)oc3c2C)OC1(C)C | S. aureus MW2 | true (1) |
| CO[C@@H]1[C@@H](OC(N)=O)[C@@H](O)[C@H](Oc2ccc3c(O)c(NC(=O)c4cccc(-c5ccccc5)c4O)c(=O)oc3c2C)OC1(C)C | S. aureus MW2 | false (0) |
| CO[C@@H]1[C@@H](OC(N)=O)[C@@H](O)[C@H](Oc2ccc3c(O)c(NC(=O)c4ccc(C#Cc5ccccc5)cc4)c(=O)oc3c2C)OC1(C)C | S. aureus MW2 | true (1) |
| CO[C@@H]1[C@@H](O)[C@@H](OC(=O)NC(C)C)[C@H](Oc2ccc3c(O)c(NC(=O)c4ccc(O)c(CC=C(C)C)c4)c(=O)oc3c2C)OC1(C)C | S. aureus MW2 | false (0) |

q: Quick check: does `CO[C@@H]1[C@@H](O)[C@@H](OC(=O)c2ccc[nH]2)[C@H](Oc2ccc3c(O)c(NC(=O)c4ccc(O)c(CC=C(C)C)c4)c(=O)oc3c2C)OC1(C)C` have MIC under 20 µM?
a: true (1)

q: Quick check: does `CO[C@@H]1[C@@H](OC(N)=O)[C@@H](O)[C@H](Oc2ccc3c(O)c(NC(=O)c4cccc5ccn(C)c45)c(=O)oc3c2C)OC1(C)C` have MIC under 20 µM?
a: false (0)

q: Quick check: does `CO[C@@H]1[C@@H](OC(N)=O)[C@@H](O)[C@H](Oc2ccc3c(O)c(NC(=O)c4cc(O)c(O)c(-c5ccc(F)cc5)c4)c(=O)oc3c2C)OC1(C)C` have MIC under 20 µM?
a: false (0)
